Please go through the items and note down their Relative KD (to VH0VK0).
- tested_system: T1, full length recombinant human 2N4R tau (human, UniProt P10636 1-758)
- T1 construct: bought from rPeptide; pHrodo Red maleimide-labelled where it stands in uptake assays; also called tau1-441; full length tau
- T1 sequence (P10636 other isoform, or with tags, fused parts or gaps limits assumed): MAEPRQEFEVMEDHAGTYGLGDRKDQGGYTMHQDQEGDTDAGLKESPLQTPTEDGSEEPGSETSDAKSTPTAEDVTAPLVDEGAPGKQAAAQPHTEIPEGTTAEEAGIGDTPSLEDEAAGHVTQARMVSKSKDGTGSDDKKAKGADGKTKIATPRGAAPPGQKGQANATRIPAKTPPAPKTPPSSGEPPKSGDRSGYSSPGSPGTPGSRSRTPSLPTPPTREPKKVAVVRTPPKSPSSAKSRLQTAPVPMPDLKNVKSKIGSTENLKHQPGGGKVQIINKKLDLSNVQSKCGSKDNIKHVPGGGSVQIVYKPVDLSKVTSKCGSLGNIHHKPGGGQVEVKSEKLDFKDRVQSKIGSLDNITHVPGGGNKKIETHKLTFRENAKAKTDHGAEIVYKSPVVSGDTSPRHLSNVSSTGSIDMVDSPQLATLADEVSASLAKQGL
- assay_explanation: SPR SCK, IgG on Protein A, tau in flow
Numbers only.

Inquiry: For the binder #44 VH3VK3 humanised hIgG1 (antibody, V domains shown, also called VH3Vκ3; Clone VH3VK3 (A)) VH: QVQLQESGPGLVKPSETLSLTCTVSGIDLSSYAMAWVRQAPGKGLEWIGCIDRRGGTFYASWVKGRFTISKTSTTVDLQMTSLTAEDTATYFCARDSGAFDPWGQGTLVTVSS VL: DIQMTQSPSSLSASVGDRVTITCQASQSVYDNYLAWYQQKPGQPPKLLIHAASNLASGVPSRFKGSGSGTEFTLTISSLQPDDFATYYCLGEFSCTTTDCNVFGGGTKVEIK , what Relative KD (to VH0VK0) is on record?
Reply text: 2.01

Look up Relative KD (to VH0VK0) for the entries below, preserving their order.
1. #44 VH2VK4 humanised hIgG1 (antibody, V domains shown, also called VH2Vκ4) VH: QSVQESGPGLVKPSETLSLTCTVSGIDLSSYAMAWVRQAPGKGLEWIGCIDRRGGTFYASWVKGRFTISKTSTTVDLQMTSLTAEDTATYFCARDSGAFDPWGQGTLVTVSS VL: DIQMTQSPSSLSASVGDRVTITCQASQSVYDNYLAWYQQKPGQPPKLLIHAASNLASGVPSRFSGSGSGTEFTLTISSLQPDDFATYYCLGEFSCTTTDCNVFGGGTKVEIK
2. #44 VH3VK4 humanised hIgG1 (antibody, V domains shown, also called VH3Vκ4; Clone VH3VK4 (B)) VH: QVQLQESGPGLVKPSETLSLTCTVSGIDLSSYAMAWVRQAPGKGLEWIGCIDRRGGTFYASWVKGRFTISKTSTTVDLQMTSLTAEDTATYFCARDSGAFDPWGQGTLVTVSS VL: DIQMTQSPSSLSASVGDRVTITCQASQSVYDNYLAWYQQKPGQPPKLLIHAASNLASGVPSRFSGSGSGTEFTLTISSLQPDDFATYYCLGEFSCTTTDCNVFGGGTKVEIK

Reply text:
1.39
1.83

Data provenance is patent US20250270301A1.
